Origin of values: the RNAGym collection of RNA variant scans (doi:10.7554/elife.90254)

B1: LINE1-mini (parent)
chain: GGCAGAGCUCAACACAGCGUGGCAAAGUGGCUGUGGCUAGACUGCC

- Variants of: B1
- Measurement Protocol: self-cleavage, relative activity (ratio to wild type); higher = more cleavage; in vitro, sequencing; the parent is a self-cleaving ribozyme
Measured Property: self-cleavage
Number only, no unit.

Known results for variants:
INSERT INTO measurements (mutation_spec, value_measured) VALUES
  ('A25C A41C', 0.04),
  ('G30C G36U', 0.11),
  ('U28C', 0.73),
  ('U9C C10A', 0.03),
  ('G7A G17U', 0.12),
  ('G17U C42U', 0.06);

Query variant follows.
Consider G5C C13U . Its measured self-cleavage is 0.05
